molecular target: panel of more than 300 wild-type and mutant kinases (313 kinase panel) (Homo sapiens, UniProt P09619); assay: Kinase profiling in a biochemical assay panel (mobility shift assays and ELISA), %-inhibition at 1 μM; selectivity entropy; settings: kinase PDGFRβ; 1 μM
Field: %-inhibition of PDGFRβ. Provide a value for each of the molecules that follow.
Number in %, nothing else.

Value of %-inhibition of PDGFRβ reported for the molecule CO[C@H]1C[C@@H]2CC[C@@H](C)[C@@](O)(O2)C(=O)C(=O)N2CCCC[C@H]2C(=O)O[C@H]([C@H](C)C[C@@H]2CC[C@@H](OCCO)[C@H](OC)C2)CC(=O)[C@H](C)/C=C(\C)[C@@H](O)[C@@H](OC)C(=O)[C@H](C)C[C@H](C)/C=C/C=C/C=C/1C [everolimus] is -3.52

Value of %-inhibition of PDGFRβ reported for the molecule CCCS(=O)(=O)Nc1ccc(F)c(C(=O)c2c[nH]c3ncc(-c4ccc(Cl)cc4)cc23)c1F [vemurafenib] is 33

Value of %-inhibition of PDGFRβ reported for the molecule CS(=O)(=O)CCNCc1ccc(-c2ccc3ncnc(Nc4ccc(OCc5cccc(F)c5)c(Cl)c4)c3c2)o1 [lapatinib] is 2.84

###

Field: %-inhibition of PLK1. Provide a value for each of the compounds that follow.
molecular target: panel of more than 300 wild-type and mutant kinases (313 kinase panel) (Homo sapiens); assay: Kinase profiling in a biochemical assay panel (mobility shift assays and ELISA), %-inhibition at 1 μM; selectivity entropy; details: kinase PLK1; 1 μM

Value of %-inhibition of PLK1 reported for the compound CO[C@H]1C[C@@H]2CC[C@@H](C)[C@@](O)(O2)C(=O)C(=O)N2CCCC[C@H]2C(=O)O[C@H]([C@H](C)C[C@@H]2CC[C@@H](OC(=O)C(C)(CO)CO)[C@H](OC)C2)CC(=O)[C@H](C)/C=C(\C)[C@@H](O)[C@@H](OC)C(=O)[C@H](C)C[C@H](C)/C=C/C=C/C=C/1C [temsirolimus] is -0.295%

Value of %-inhibition of PLK1 reported for the compound Cc1ccc(Nc2nccc(N(C)c3ccc4c(C)n(C)nc4c3)n2)cc1S(N)(=O)=O [pazopanib] is 1.15%

Value of %-inhibition of PLK1 reported for the compound Cc1ccc(C(=O)Nc2ccc(CN3CCN(C)CC3)c(C(F)(F)F)c2)cc1C#Cc1cnc2cccnn12 [ponatinib] is -6%

Value of %-inhibition of PLK1 reported for the compound O=S(=O)(c1cccc2cnccc12)N1CCCNCC1 [fasudil] is -8.49%

Value of %-inhibition of PLK1 reported for the compound COc1cc2nccc(Oc3ccc(NC(=O)C4(C(=O)Nc5ccc(F)cc5)CC4)cc3)c2cc1OC [cabozantinib] is -2%

Value of %-inhibition of PLK1 reported for the compound COc1cc(Nc2c(C#N)cnc3cc(OCCCN4CCN(C)CC4)c(OC)cc23)c(Cl)cc1Cl [bosutinib] is 5%

Value of %-inhibition of PLK1 reported for the compound Cc1cn(-c2cc(NC(=O)c3ccc(C)c(Nc4nccc(-c5cccnc5)n4)c3)cc(C(F)(F)F)c2)cn1 [nilotinib] is -2.41%

Value of %-inhibition of PLK1 reported for the compound CCCS(=O)(=O)Nc1ccc(F)c(C(=O)c2c[nH]c3ncc(-c4ccc(Cl)cc4)cc23)c1F [vemurafenib] is -4%

Value of %-inhibition of PLK1 reported for the compound CC(C)(C)c1nc(-c2cccc(NS(=O)(=O)c3c(F)cccc3F)c2F)c(-c2ccnc(N)n2)s1 [dabrafenib] is -9%

Value of %-inhibition of PLK1 reported for the compound CNC(=O)c1cc(Oc2ccc(NC(=O)Nc3ccc(Cl)c(C(F)(F)F)c3)c(F)c2)ccn1 [regorafenib] is -0.767%

Value of %-inhibition of PLK1 reported for the compound C[C@@H](Oc1cc(-c2cnn(C3CCNCC3)c2)cnc1N)c1c(Cl)ccc(F)c1Cl [crizotinib] is -3%

Value of %-inhibition of PLK1 reported for the compound CO[C@H]1C[C@@H]2CC[C@@H](C)[C@@](O)(O2)C(=O)C(=O)N2CCCC[C@H]2C(=O)O[C@H]([C@H](C)C[C@@H]2CC[C@@H](OCCO)[C@H](OC)C2)CC(=O)[C@H](C)/C=C(\C)[C@@H](O)[C@@H](OC)C(=O)[C@H](C)C[C@H](C)/C=C/C=C/C=C/1C [everolimus] is 0.059%

Value of %-inhibition of PLK1 reported for the compound CC(=O)Nc1cccc(-n2c(=O)n(C3CC3)c(=O)c3c(Nc4ccc(I)cc4F)n(C)c(=O)c(C)c32)c1 [trametinib] is -9%

Value of %-inhibition of PLK1 reported for the compound N#CC[C@H](C1CCCC1)n1cc(-c2ncnc3[nH]ccc23)cn1 [ruxolitinib] is 25%

Value of %-inhibition of PLK1 reported for the compound COc1cc2c(Nc3ccc(Br)cc3F)ncnc2cc1OCC1CCN(C)CC1 [vandetanib] is -3.6%
